experiment: physchem; conditions: octanol/water
REPORTED ENDPOINT: logP

Recorded logP of "CCOc1ccccc1OC(=O)NC" , please. 1.24

Now the compound "NS(=O)(=O)c1cccc([N+](=O)[O-])c1" 0.55

Now the compound "CNC(=O)Oc1cccc(Cl)c1" 2.03

Now the compound "NS(=O)(=O)c1ccc([N+](=O)[O-])c(C(F)(F)F)c1" 1.73

Now the compound NS(=O)(=O)c1ccccc1 [BENZENESULFONAMIDE] 0.31

Now the compound "CCOc1ccccc1" 2.51

Now the compound "CNC(=O)Oc1cccc(N(C)C)c1" 1.43

Now the compound "O=C(O)COc1cccc(C(=O)O)c1" 1.11

Now the compound "CNC(=O)Oc1ccccc1[N+](=O)[O-]" 1.02

Now the compound "CNC(=O)Oc1ccccc1C#N" 0.86

Now the compound "O=C(O)COc1ccccc1" 1.26

====

settings: octanol/water
Give yes (1) when the value for logP is at least 1. Give no (0) when it is less.

Test whether the compound "O=Cc1ccccc1" records logP of 1 or higher. yes (1)

Now the compound "Brc1ccccc1" yes (1)

Now the compound "CC(=O)N(C)c1ccccc1" no (0)

Now the compound "CN(C)Cc1ccccc1" yes (1)

Now the compound "N#Cc1ccccc1" no (0)

Now the compound "OCc1ccccc1" no (0)

Now the compound "CC(=O)c1ccccc1" yes (1)

Now the compound "Clc1ccccc1" yes (1)

Now the compound "Oc1ccccc1" no (0)

Now the compound "O=[N+]([O-])c1ccccc1" yes (1)

Now the compound "NCc1ccccc1" no (0)

Now the compound "CN(C)c1ccccc1" yes (1)

Now the compound "Nc1ccccc1" no (0)

====

We'd kindly ask you to apply these pKHB classes: low (below 0.02), mid (0.02 to below 1), high (1 or more)

Entry "CC(=O)c1ccccc1" belongs to which category? high

Now the compound "CC(=O)N(C)c1ccccc1" high

Now the compound "CN(C)Cc1ccccc1" high

Now the compound "CN(C)c1ccccc1" mid

Now the compound "COP(=O)(OC)Oc1ccccc1" high

Now the compound "Brc1ccccc1" low

Now the compound "Clc1ccccc1" low

Now the compound "CN(C)C(=O)c1ccccc1" high

Now the compound "N#Cc1ccccc1" mid

Now the compound "CS(=O)(=O)c1ccccc1" high

Now the compound "CCOc1ccccc1" mid

Now the compound "Cc1ccccc1" low

Now the compound "O=Cc1ccccc1" mid

Now the compound "CCc1ccccc1" low

====

assay: physchem; details: octanol/water
Can you tell me logP for the items I'm about to list?

Recorded logP of "CNC(=O)Oc1cccc(C#N)c1" , please. 0.98

Now the compound "Oc1cccc(I)c1" 2.93

Now the compound "O=C(O)COc1cccc([N+](=O)[O-])c1" 1.37

Now the compound "NS(=O)(=O)c1ccc([N+](=O)[O-])cc1" 0.64

Now the compound NS(=O)(=O)c1ccc(Cl)cc1 [P-CHLOROBENZENESULFONAMIDE] 0.84

====

test: physchem; details: octanol/water
REPORTED ENDPOINT: logP
Keep it simple and answer with nothing but the number.

Recorded logP of "CNC(=O)Oc1ccc(C=O)cc1" , please. 0.99

Now the compound "CS(=O)(=O)c1ccccc1" 0.47

Now the compound "CC(=O)Nc1cccc(OCC(=O)O)c1" 0.47

Now the compound "CN(C)C(=O)c1ccccc1" 0.62

Now the compound "CNC(=O)Oc1cccc(C=O)c1" 0.92

Now the compound "COc1cccc(OCC(=O)O)c1" 1.38

Now the compound "CNC(=O)Oc1ccccc1OC" 0.81

Now the compound "Oc1cccc(F)c1" 1.93

Now the compound "CC(=O)c1ccc(S(N)(=O)=O)cc1" 0.2

Now the compound "Oc1cccc(Br)c1" 2.63

Now the compound "CNC(=O)Oc1ccccc1OC(C)C" 1.52

Now the compound "CN(C)Cc1ccccc1" 1.98
